# EXPERIMENTAL_TARGET: Recombinant human BACE1 (Homo sapiens (Human), UniProt P56817)
# Sequence (P56817 46-501): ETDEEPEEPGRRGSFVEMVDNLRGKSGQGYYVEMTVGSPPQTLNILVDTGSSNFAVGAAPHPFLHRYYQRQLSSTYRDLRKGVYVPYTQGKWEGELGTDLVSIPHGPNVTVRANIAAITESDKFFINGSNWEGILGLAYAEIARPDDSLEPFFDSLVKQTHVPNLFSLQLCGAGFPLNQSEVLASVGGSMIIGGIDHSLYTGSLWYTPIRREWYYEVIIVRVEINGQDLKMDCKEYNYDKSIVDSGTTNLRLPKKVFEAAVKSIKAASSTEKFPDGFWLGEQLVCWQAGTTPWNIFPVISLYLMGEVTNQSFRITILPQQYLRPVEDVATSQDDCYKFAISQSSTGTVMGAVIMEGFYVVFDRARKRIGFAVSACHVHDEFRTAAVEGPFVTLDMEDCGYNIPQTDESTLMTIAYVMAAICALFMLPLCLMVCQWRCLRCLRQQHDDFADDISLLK
# PROTOCOL_NOTES: Assay of BACE1 inhibiting activity
# RUN_PARAMETERS: read-out: IC50 (50% inhibitory concentration against the enzymatic activity); Recombinant human BACE1 7.4 nmol/L, substrate peptide 18 nmol/L, pH 5.0, 30° C., 3 hours
# Procedure: 48.5 μL of substrate peptide solution (Biotin-XSEVNLDAEFRHDSGC-Eu: X=ε-amino-n-capronic acid, Eu=Europium cryptate) was added to each well of 96-hole half-area plate (a black plate: Costar), and after addition of 0.5 μl of the test compound (dissolved in N,N′-dimethyl formaldehyde) and 1 μl of Recombinant human BACE1(R&D Systems), the reaction mixture was incubated at 30° C. for 3 hours. […]
pIC50: −log10 of the molar value.
VALUE_KIND: pIC50

Please look at this compound and report its pIC50: C=C1C[C@@](C)(c2cc(NC(=O)c3ncc(Cl)cc3Cl)ccc2F)N=C(N)O1 ≥ 4.52

Query pIC50 for C=C1C[C@@](C)(c2cc(NC(=O)c3ccc(Cl)cn3)ccc2F)N=C(N)O1 7.57

Provide one value: measured pIC50 of C=C1C[C@@](C)(c2cc(NC(=O)c3cnc(OC)cn3)ccc2F)N=C(N)O1 ≥ 4.52

For the compound C=C1C[C@@](C)(c2cc(NC(=O)c3ncc(F)cc3F)ccc2F)N=C(N)O1 , give its measured pIC50 value. ≥ 4.52
